Origin of values: patent US20250179047A1

Tested on: BCL2 G101V
test name: TR-FRET competitive binding assay, BCL2 G101V
Set-up: species or system human
setup conditions: ratio Ki BCL2 G101V / Ki BCL2 WT
measured endpoint: TR_FRET EKI G101V/WT selectivty ratio

Some solved entries appear below for comparison.
Cc1c(N(C(=O)c2cc(-c3cc4c(cc3C(=O)N3Cc5ccccc5C[C@H]3CN3CCCCC3)CN(C(=O)Cc3ccc(OCCN(C)C5COC5)cc3F)CC4)n(C)c2C)c2ccc(O)cc2)cc(C#N)n1C	4.3
Cc1c(N(C(=O)c2cc(-c3cc4c(cc3C(=O)N3Cc5ccccc5C[C@H]3CN3CCC5(CC5)C3)CN(C(=O)Cc3ccc(OCCN5CCOCC5)cc3F)CC4)n(C)c2C)c2ccc(O)cc2)cc(C#N)n1C	5.8
Cc1c(N(C(=O)c2cc(-c3cc4c(cc3C(=O)N3Cc5ccccc5C[C@H]3C)CN(C(=O)Cc3ccc(OCCN5CCO[C@@H](C)C5)cc3)CC4)n(C)c2C)c2ccc(O)cc2)cc(C#N)n1C	4.1
Cc1c(C(=O)N(c2ccccc2)c2cnn(C(F)F)c2)cc(-c2cc3c(cc2C(=O)N2Cc4ccccc4C[C@H]2C)CN(C(=O)Cc2ccc(C#CCN4CCOCC4)cc2)CC3)n1C	37.0

(A) Cc1nn(C)cc1N(C(=O)c1cc(-c2cc3c(cc2C(=O)N2Cc4ccccc4C[C@H]2C)CN(C(=O)Cc2ccc(OCCN4CCOCC4)cc2)CC3)n(C)c1C)c1ccccc1
(B) Cc1c(N(C(=O)c2cc(-c3cc4c(cc3C(=O)N3Cc5ccccc5C[C@H]3CN3CCCCC3)CN(C(=O)Cc3ccc(OCCC5CCOCC5)nc3)CC4)n(C)c2C)c2ccc(O)cc2)cc(C#N)n1C
(C) Cc1ccc(N(C(=O)c2cc(-c3cc4c(cc3C(=O)N3Cc5ccccc5C[C@H]3C)CN(C(=O)Cc3ccc(OCCN5CCOCC5)cc3)CC4)n(C)c2C)c2ccccc2)cc1C#N
Returns the items ordered by TR_FRET EKI G101V/WT selectivty ratio, from maximum to minimum. Response format: the labels, sorted as the prompt asks.
A, C, B

(I) COc1cc(OCCN2CCOCC2)ccc1CC(=O)N1CCc2cc(-c3cc(C(=O)N(c4ccc(O)cc4)c4cc(C#N)n(C)c4C)c(C)n3C)c(C(=O)N3Cc4ccccc4C[C@H]3CN3CCCCC3)cc2C1
(II) Cc1c(N(C(=O)c2cc(-c3cc4c(cc3C(=O)N3Cc5ccccc5C[C@H]3CN3CCOCC3)CN(C(=O)Cc3ccc(OCCC5CCOCC5)cc3F)CC4)n(C)c2C)c2ccc(O)cc2)cc(C#N)n1C
Exercise: compare I and II ; which one has the greater TR_FRET EKI G101V/WT selectivty ratio? Use the label to indicate which entry you chose.
I

(P) Cc1c(C(=O)N(c2ccc(O)cc2)c2cc(C#N)n(C(F)F)c2C)cc(-c2cc3c(cc2C(=O)N2Cc4ccccc4C[C@H]2CN2CCCCC2)CN(C(=O)Cc2ccc(OCCN4CCOCC4)cc2F)CC3)n1C
(Q) COc1ccc(N(C(=O)c2cc(-c3cc4c(cc3C(=O)N3Cc5ccccc5C[C@H]3C)CN(C(=O)Cc3ccc(OCCN5CCOCC5)cc3F)CC4)n(C)c2C)c2ccccc2)cn1
Which one would you say has the larger TR_FRET EKI G101V/WT selectivty ratio value: P , or Q ? Record your answer as the label of the chosen record.
Q

(I) Cc1c(N(C(=O)c2cc(-c3cc4c(cc3C(=O)N3Cc5ccccc5C[C@H]3CN3CCCCCC3)CN(C(=O)Cc3ccc(OCCN5CCOCC5)cc3F)CC4)n(C)c2C)c2ccc(O)cc2)cc(C#N)n1C
(II) COc1ncc(N(C(=O)c2cc(-c3cc4c(cc3C(=O)N3Cc5ccccc5C[C@H]3C)CN(C(=O)Cc3ccc(OCCN5CCOCC5)cc3F)CC4)n(C)c2C)c2ccccc2)cc1C#N
// compare measured TR_FRET EKI G101V/WT selectivty ratio, left I , right II , return larger Reply with the label of the item you choose.
II

(I) Cc1c(N(C(=O)c2cc(-c3cc4c(cc3C(=O)N3Cc5ccccc5C[C@H]3CN3CCC[C@H](C)C3)CN(C(=O)Cc3ccc(OCCN5CCOCC5)cc3)CC4)n(C)c2C)c2ccc(O)cc2)cc(C#N)n1C
(II) Cc1c(N(C(=O)c2cc(-c3cc4c(cc3C(=O)N3Cc5ccccc5C[C@H]3CN3CCCC3)CN(C(=O)Cc3c(F)cc(OCCN5CCOCC5)cc3F)CC4)n(C)c2C)c2ccc(O)cc2)cc(C#N)n1C
Pick one, I or II : lowest reported TR_FRET EKI G101V/WT selectivty ratio. // output: label of the selected item
I

(1) Cc1c(C(=O)N(c2ccc(O)cc2)c2cc(C#N)n(C(F)F)c2C)cc(-c2cc3c(cc2C(=O)N2Cc4ccccc4C[C@H]2CN2CC4(CCC4)C2)CN(C(=O)Cc2ccc(OCCC4CCOCC4)cc2)CC3)n1C
(2) Cc1c(C(=O)N(c2ccccc2)c2cc(C#N)n(C(F)F)c2C)cc(-c2cc3c(cc2C(=O)N2Cc4ccccc4C[C@H]2C)CN(C(=O)Cc2ccc(OCCN4CCOCC4)cc2)CC3)n1C
(3) COc1ccc(N(C(=O)c2cc(-c3cc4c(cc3C(=O)N3Cc5ccccc5C[C@H]3C)CN(C(=O)Cc3ccc(OCCN5CCOCC5)cc3)CC4)n(C)c2C)c2ccc(O)cc2)cc1C#N
Sort (3 compounds) by TR_FRET EKI G101V/WT selectivty ratio: min first. Answer format: list of labels, ordered as asked.
3, 1, 2
